# Tested on: HCT-15
# assay.text: Growth inhibition of human HCT15 cells assessed as growth inhibition at 10 uM by sulforhodamine B assay
# Assay type: functional
# assay.context: read-out: GI
Class true: inhibition of growth at 10 µM at least 70%. Class false: inhibition of growth at 10 µM below 70%.

Qu. For this molecule, is measured inhibition of growth at 10 µM 70% or higher? CC1(C)C[C@@H](O)[C@]2(C(=O)O)CC[C@]3(C)C(=CC[C@@H]4[C@@]5(C)C/C(=C\C=C\c6ccccc6)C(=O)C(C)(C)[C@@H]5CC[C@]43C)[C@@H]2C1
Ans. false

Qu. For this molecule, is measured inhibition of growth at 10 µM 70% or higher? CC(C)=CC(=O)O[C@@H]1CC(C)(C)C[C@H]2C3=CC[C@@H]4[C@@]5(C)CCC(=O)C(C)(C)[C@@H]5CC[C@@]4(C)[C@]3(C)CC[C@@]12C(=O)O
Ans. true

Qu. For this molecule, is measured inhibition of growth at 10 µM 70% or higher? CC1(C)C[C@@H](O)[C@]2(C(=O)O)CC[C@]3(C)C(=CC[C@@H]4[C@@]5(C)CC[C@H](O)C(C)(C)[C@@H]5CC[C@]43C)[C@@H]2C1
Ans. false

Qu. For this molecule, is measured inhibition of growth at 10 µM 70% or higher? COc1cc(/C=C2\C[C@]3(C)[C@H]4CC=C5[C@@H]6CC(C)(C)C[C@@H](O)[C@]6(C(=O)O)CC[C@@]5(C)[C@]4(C)CC[C@H]3C(C)(C)C2=O)ccc1O
Ans. false

Qu. For this molecule, is measured inhibition of growth at 10 µM 70% or higher? C/C=C(/C)C(=O)O[C@@H]1CC(C)(C)C[C@H]2C3=CC[C@@H]4[C@@]5(C)CC[C@H](O)C(C)(C)[C@@H]5CC[C@@]4(C)[C@]3(C)CC[C@@]12C(=O)O [Reduced Lantadene A]
Ans. true

Qu. For this molecule, is measured inhibition of growth at 10 µM 70% or higher? CC(C)=CC(=O)O[C@@H]1CC(C)(C)C[C@H]2C3=CC[C@@H]4[C@@]5(C)CC[C@H](O)C(C)(C)[C@@H]5CC[C@@]4(C)[C@]3(C)CC[C@@]12C(=O)O [Reduced Lantadene B]
Ans. true

Qu. For this molecule, is measured inhibition of growth at 10 µM 70% or higher? CC1(C)C[C@@H](O)[C@]2(C(=O)O)CC[C@]3(C)C(=CC[C@@H]4[C@@]5(C)CCC(=O)C(C)(C)[C@@H]5CC[C@]43C)[C@@H]2C1
Ans. false

###

# System: HL-60(TB)
# assay.text: Growth inhibition of human HL-60(TB) cells by sulforhodamine B assay
# Type: functional
# assay.context: read-out: TGI
reported.endpoint: TGI
Dear colleague, please send the value followed by its unit.

response.value for CC(C)=CC(=O)O[C@@H]1CC(C)(C)C[C@H]2C3=CC[C@@H]4[C@@]5(C)CCC(=O)C(C)(C)[C@@H]5CC[C@@]4(C)[C@]3(C)CC[C@@]12C(=O)O (field: TGI) = 5.38 µM

response.value for C/C=C(/C)C(=O)O[C@@H]1CC(C)(C)C[C@H]2C3=CC[C@@H]4[C@@]5(C)CC[C@H](O)C(C)(C)[C@@H]5CC[C@@]4(C)[C@]3(C)CC[C@@]12C(=O)O [Reduced Lantadene A] (field: TGI) = 4.9 µM

response.value for C/C=C(/C)C(=O)O[C@@H]1CC(C)(C)C[C@H]2C3=CC[C@@H]4[C@@]5(C)CCC(=O)C(C)(C)[C@@H]5CC[C@@]4(C)[C@]3(C)CC[C@@]12C(=O)O [LANTADENE A] (field: TGI) = 5.26 µM

response.value for CC1(C)C[C@@H](O)[C@]2(C(=O)O)CC[C@]3(C)C(=CC[C@@H]4[C@@]5(C)C/C(=C\C=C\c6ccccc6)C(=O)C(C)(C)[C@@H]5CC[C@]43C)[C@@H]2C1 (field: TGI) = 6.89 µM

response.value for CC(C)=CC(=O)O[C@@H]1CC(C)(C)C[C@H]2C3=CC[C@@H]4[C@@]5(C)CC[C@H](O)C(C)(C)[C@@H]5CC[C@@]4(C)[C@]3(C)CC[C@@]12C(=O)O [Reduced Lantadene B] (field: TGI) = 6.86 µM
